Give measured SPOT peptide array binding signal intensity for each item. Keep answers brief.
# experimental_target: CaBzz1-D2
# assay_method_text: SPOT peptide array binding signal intensity (averaged, normalized) (arbitrary units (background-subtracted, floor 0; scale differs between SH3 domains)); higher = stronger binding of the SH3 domain to the peptide
// no unit string in output, number only

# query: SPOT peptide array binding signal intensity of entry "MKRSRPSRSIPYTTP"
158

I have this binder here, "RRLRDKYKLPIVDAD" , and I need its recorded SPOT peptide array binding signal intensity.
34.5

// SPOT peptide array binding signal intensity lookup, key: "NFKRLLPRDPSEKSS"
17.8

Given the binder "HVRRSILALPLGVLL" , what is its reported SPOT peptide array binding signal intensity?
22

Quick check: SPOT peptide array binding signal intensity of "EAEEAAPQLPSRSSA" ?
3.25

Dear colleague, I am looking for the recorded SPOT peptide array binding signal intensity of the following binder: "IPSRPAPKPPSSASA"
1510
